# target_under_test: Bcl-xL, Q07817
# Sequence (Q07817 1-209): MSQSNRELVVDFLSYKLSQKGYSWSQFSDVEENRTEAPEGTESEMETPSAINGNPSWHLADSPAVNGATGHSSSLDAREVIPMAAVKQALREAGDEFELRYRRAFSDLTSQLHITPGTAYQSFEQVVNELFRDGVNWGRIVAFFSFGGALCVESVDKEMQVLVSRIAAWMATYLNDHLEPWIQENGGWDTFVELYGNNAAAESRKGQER
# assay_details: peptide SPOT array, c-Myc-tagged receptor at 1 uM or 100 nM, anti-c-Myc-Cy3
metric: SPOT signal as a fraction of Bim BH3's signal on the same receptor and array

[a] KRALIQCAKDIAKASDEVTRLAKEVA [VCL]
[b] RVCPYYLSRNDKQQADIIFMPYNYLL [RTEL1]
Of a and b , which shows the smaller SPOT signal as a fraction of Bim BH3's signal on the same receptor and array value? Write down the label attached to your selection.
a

[I] LARIRRRIKWLQDGSQSLFGRLHNDC [VWA3B]
[II] EGTKIVLGKQDIESADEVRRKSLVLK [TAF1]
// which entry has the larger SPOT signal as a fraction of Bim BH3's signal on the same receptor and array value, I or II ? Write down the label attached to your selection.
I
(I: 0.56, II: 0.05)

[A] TGSLCEIATTDSFEGDGFLWVKSGSV [CRB1]
[B] ELQAPATVQSLGLLGDRLCVGAAGGF [CDC42BPG]
// which entry has the larger SPOT signal as a fraction of Bim BH3's signal on the same receptor and array value, A or B ? Write down the label attached to your selection.
A

Value source: paper PMC4072508
